System: redroot pigweed (Amaranthus retroflexus, AMARE)
assayRemarks: Pre-emerge test, greenhouse herbicide activity screening
Format: in vivo
assaySetup: 63 g ai/ha; rated 14 days after application; 0 = no damage, 100 = complete death
Tick MET if Pre-emerge Herbicidal Activity, phytotoxicity rating (0-100), AMARE is 70 or greater. Tick NOT MET if Pre-emerge Herbicidal Activity, phytotoxicity rating (0-100), AMARE is less than 70.

Illustrative cases are given below, each with its answer.
smilesString: COc1c(Cl)cc(F)c(-n2c(=O)cc(C(F)(F)F)n(C)c2=O)c1NC(=O)COc1ccccc1
label: MET

smilesString: COc1c(Cl)cc(F)c(-n2c(=O)cc(C(F)(F)F)n(C)c2=O)c1NC(=O)c1ccc(F)c(F)c1
label: MET

smilesString: COc1c(Cl)cc(F)c(-n2c(=O)cc(C(F)(F)F)n(C)c2=O)c1N(C(=O)C=Cc1ccccc1Cl)C(=O)C=Cc1ccccc1Cl
label: NOT MET

Ask: Is Pre-emerge Herbicidal Activity, phytotoxicity rating (0-100), AMARE for COc1c(Cl)cc(F)c(-n2c(=O)cc(C(F)(F)F)n(C)c2=O)c1NC(=O)c1ccc(F)cc1F at or above 70?
Reply: MET

Ask: Cool, now COc1c(Cl)cc(F)c(-n2c(=O)cc(C(F)(F)F)n(C)c2=O)c1NC(=O)C=Cc1ccc(Cl)cc1
Reply: MET

Ask: Cool, now COc1c(Cl)cc(F)c(-n2c(=O)cc(C(F)(F)F)n(C)c2=O)c1NC(=O)c1ccc(-c2ccccc2)cc1
Reply: NOT MET
